Biological target: T1, TauC3 (C-terminally truncated tau fragment ending at aspartate 421 of htau40) (human, UniProt P10636 1-738)
T1 construct: Generated and purified by Genscript; also called Human TauC3; recombinant TauC3 protein
T1 sequence (P10636 other isoform, or with tags, fused parts or gaps): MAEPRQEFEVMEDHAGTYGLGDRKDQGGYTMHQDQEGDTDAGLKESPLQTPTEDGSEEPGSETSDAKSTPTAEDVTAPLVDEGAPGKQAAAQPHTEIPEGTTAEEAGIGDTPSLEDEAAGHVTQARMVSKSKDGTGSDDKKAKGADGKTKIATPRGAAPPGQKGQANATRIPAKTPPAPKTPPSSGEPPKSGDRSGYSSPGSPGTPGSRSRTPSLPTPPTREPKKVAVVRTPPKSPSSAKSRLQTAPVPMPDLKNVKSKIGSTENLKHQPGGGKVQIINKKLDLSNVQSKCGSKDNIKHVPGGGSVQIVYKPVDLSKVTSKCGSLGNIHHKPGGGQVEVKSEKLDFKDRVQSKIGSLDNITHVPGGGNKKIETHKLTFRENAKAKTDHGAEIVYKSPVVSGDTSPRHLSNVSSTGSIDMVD
Test: binding ELISA on coated TauC3, OD650
measurement-label: pEC50
pEC50 field: float, defined as -log10 of concentration (mol/L).

Q: Please give the documented pEC50 of Tau01 HBKB (antibody, V domains shown, human IgG4 kappa (HuG4K)) VH: EVQVVESGGGLVQPGGSLKLSCAASGFTFNTYAMNWVRQASGKGLEWVARIRSKSNNYATYYADSVKGRFTISRDDSKSMVYLQMDSLKTEDTAVYYCVGGGDFWGQGTLVTVSS VL: DIQMTQSPSSLSASVGDRVTITCRASQEISVYLSWFQQKPGKAIKRLIYGAFTLQSGVPSRFSGSRSGSEYTLTISSLQPEDFATYYCLQYVRYPWTFGGGTKVEIK
Ans: 9.40
